From: PubChem BioAssay (NCI)

# Tested on: ACHN renal
# method_notes: NCI tumour cell line growth inhibition, 48 h
Please provide measured TGI for the entries that follow.

compound	target	observed_property	measured_value
C[N+](C)([O-])CCCNc1ccnc2cccc([N+](=O)[O-])c12	ACHN renal	TGI	> 100 µM

Parameter requested: TGI. Apply to each item below.
1. COc1cc([C@@H]2c3cc4c(cc3C[C@H]3COC(=O)[C@@H]32)OCO4)cc2c1OCO2
2. O=C1C[C@H](c2ccc(O)c(O)c2)Oc2cc(O)cc(O)c21

> 100 µM
> 100 µM

----------
# System: T-47D breast
# method_notes: NCI tumour cell line growth inhibition, 48 h
Please provide measured GI50 for the entries that follow.

Use the examples below as a reference point.
molecule	GI50
O=[N+]([O-])c1cc(F)c2cccnc2c1O	21.2 µM
Oc1c(CN2CCOCC2)cc(COCc2ccccc2)c2cccnc12	2.63 µM
CCOC(=O)c1ccccc1-c1c2ccc(=[N+](C)C)cc-2oc2cc(N(C)C)ccc12	0.104 µM
CCOC(=O)/C(C#N)=C/Nc1ccc(-c2nc3ccccc3[nH]2)cc1	33.9 µM
CC(=O)C1(O)Cc2c(O)c3c(c(O)c2C(OC2CC(N)C(O)C(C)O2)C1)C(=O)c1ccccc1C3=O (stereo not given)	< 0.0145 µM
Cc1nnc(-c2ccc(-c3nc4ccccc4o3)cc2)o1	> 100 µM

Parameter requested: GI50. Apply to each item below.
1. CCOC(=O)Cc1csc(NC(=O)COC(=O)c2ccc(OC)cc2)n1
2. O=[As]c1ccc(C(=O)c2ccc(Oc3ccccc3)cc2)cc1 (stereo not given)
3. CC1(C)[C@@H](OC(N)=O)C=C[C@]2(C=O)[C@H]3CC[C@]4(C)[C@@H](c5ccc(=O)oc5)[C@@H](Cl)C[C@]4(O)C3=CC[C@@H]12
4. Cc1c(C(=O)O[C@H]2[C@@H]3[C@H](C)CC[C@H]3[C@]3(C)O[C@@]2(C2CCCCC2)C[C@H]3OC(=O)CO)ccc2ccccc12
5. Cc1sc2ncn(Cc3ccc(Cl)c(Cl)c3)c(=O)c2c1C
6. C1CC[N-]CC1.CC(=N\O)/C(C)=N/O.CC(=N\O)/C(C)=N/O.[CH2-]CCN1CCOCC1.[Co+2]
7. CN1CCN(CCOc2ccc(-c3cnc4c(-c5ccc(F)cc5)cnn4c3)cc2)CC1

> 100 µM
0.0316 µM
0.00635 µM
5.37 µM
24.8 µM
> 100 µM
1.49 µM

Parameter requested: GI50. Apply to each item below.
1. CC[C@H](NC(=O)[C@H](CS(=O)(=O)CC1CC1)N[C@@H](c1ccc(F)cc1)C(F)(F)F)C(=O)C(=O)NC1CC1
2. C=CCCC(=O)N1C=CC(=O)[C@H](O)[C@@H]1/C=C/c1ccccc1
3. O=C(CCl)Nc1cc(O)c2c(c1)C(=O)c1cccc(O)c1C2=O

> 100 µM
15.5 µM
1.19 µM

Parameter requested: GI50. Apply to each item below.
1. CC(=O)N1CCN(CCOc2ccc(C3CCN(C4=Nn5c(nnc5C(F)(F)F)CC4)CC3)cc2)CC1
2. ClCC#CCSc1ncnc2c1ncn2CC#CCCl
3. O=c1c2c3c(sc2n2c(-c4ccc(Br)cc4)nnc2n1Cc1ccccc1)CCCC3
4. COc1cccc(C2=C(c3cn(C)c4cccc(OC)c34)C(=O)NC2=O)c1

1. 5.21 µM
2. 1.33 µM
3. 4.42 µM
4. 13.7 µM

----------
# Tested on: SN12C renal
# method_notes: NCI tumour cell line growth inhibition, 48 h
observed_property: TGI

Use the examples below as a reference point.
compound	target	TGI
COc1ccccc1NS(=O)(=O)c1ccc2ncn(NS(=O)(=O)c3ccc(Cl)cc3)c(=O)c2c1	SN12C renal	> 100 µM
NS(=O)(=O)c1ccc(NC(=O)COC(=O)c2cccc3c(=O)c4ccccc4[nH]c23)cc1	SN12C renal	90 µM

Parameter requested: TGI. Apply to each item below.
1. CC(=O)n1ccc2c(Cl)ncnc21
2. C=CCC(SC)C1=C(C)C(=O)c2ccccc21 (centres undefined)
3. CCCCCCNC(=O)Oc1ccc(/C(=C(\C)c2ccccc2)c2ccc(OCCN(CC)CC)cc2)cc1
4. C#CCN(C)C(=O)N(CC#C)N=O

1: > 100 µM; 2: > 10 µM; 3: 10.9 µM; 4: > 100 µM

Parameter requested: TGI. Apply to each item below.
1. COc1ccc(-c2c(N)n[nH]c2-c2cc(OC)c(OC)c(OC)c2)cc1
2. COc1cc(C2c3cc4c(cc3[C@@H](Nc3ccc(N)cc3)C3COC(=O)[C@H]23)OCO4)cc(OC)c1O (some centres undefined)
3. O=C1c2ccccc2-c2c1c1ccccc1c(=O)n2-c1ccccc1
4. C[N+](C)([O-])CCCNc1ccnc2cccc([N+](=O)[O-])c12

1. > 100 µM
2. 6.15 µM
3. > 100 µM
4. > 100 µM

Parameter requested: TGI. Apply to each item below.
1. Cc1ccc(NC(=O)CCC(=O)C(C#N)c2ccccc2)cc1C (centres undefined)
2. Cc1nc2c(=O)[nH]c3ccc(Cl)cc3c2o1
3. NCCCC[C@H](N)C(=O)Nc1ccc(-c2nc3ccccc3s2)cc1Cl
4. C[n+]1c(N)n(C(=O)OCc2ccccc2)c(=O)c2c1ncn2C(=O)OCc1ccccc1

["> 100 µM", "> 100 µM", "27.7 µM", "> 100 µM"]

Parameter requested: TGI. Apply to each item below.
1. COc1ccc(NC(=O)/C=C(C)/C=C/C=C(C)\C=C\C2=C(C)CCCC2(C)C)cc1
2. O=C1C[C@H](c2ccc(O)c(O)c2)Oc2cc(O)cc(O)c21
3. C=C1c2nc3ccccc3n2C=C(c2ccc(OC)cc2)N1c1ccc(OCCN2CCOCC2)cc1
4. O=[N+]([O-])c1cc(Cl)ccc1S(=O)(=O)N1CCCc2cc(Cl)ccc21
5. Nc1c(C(=O)Nc2cccc(Br)c2)sc2nc3c(cc12)C(O)CCC3 (centres undefined)
6. CN(CCO)/N=N/c1[nH]ncc1C(N)=O
7. O=S(=O)(/N=C(\NO)Nc1ccc(Cl)cc1)c1ccc(-c2ccccn2)s1

["> 100 µM", "> 100 µM", "> 100 µM", "> 100 µM", "> 100 µM", "> 100 µM", "72.9 µM"]

Parameter requested: TGI. Apply to each item below.
1. CN(C)CCNc1nc(-c2cccs2)cc(-c2cccs2)n1
2. C/C=C1\CC(C(=O)OCC)CCCCCCCCCCC1=O (centres undefined)
3. Cn1ccnc1C[N-]Cc1nccn1C.O=[N+]([O-])[O-].O=[N+]([O-])[O-].[Cu+2]

["27.4 µM", "> 100 µM", "> 100 µM"]

Parameter requested: TGI. Apply to each item below.
1. OC(c1ccccc1)(c1cccnc1)C(O)(c1ccccc1)c1cccnc1 (centres undefined)
2. ClCC#CCSc1ncnc2c1ncn2CC#CCCl
3. Cc1cc(O)cc2c1c(=O)c1ccccc1n2C
4. O=S(=O)(O)ONC1=NCCN1
5. O=[N+]([O-])c1cc(F)c2cccnc2c1O
6. COc1cc(-c2nn(-c3ccc(NC(=O)c4cc(Cl)cc(Cl)c4)cc3)cc2-c2ccncc2)ccc1Cl

> 100 µM
3.65 µM
> 100 µM
> 100 µM
> 100 µM
> 100 µM

Parameter requested: TGI. Apply to each item below.
1. COc1cc(C=O)cc(C=Nc2ccc(S(N)(=O)=O)cc2)c1O
2. COc1c(N2CCN(Cn3c(O)c(N=NC(=O)c4ccncc4)c4cc(F)ccc43)C(C)C2)c(F)cc2c(=O)c(C(=O)O)cn(C3CC3)c12 (centres undefined)

35.5 µM
> 50 µM

Parameter requested: TGI. Apply to each item below.
1. Nc1ccc(C(=O)N/C(=C\c2cccc([N+](=O)[O-])c2)c2nc3c4c(ccc3[nH]2)C(=O)c2ccccc2C4=O)cc1
2. OC(CN1CCCCC1)c1ccc(/C=C/c2ccc(Cl)cc2)cc1 (centres undefined)

> 100 µM
> 100 µM

----------
# System: ACHN renal
# method_notes: NCI tumour cell line growth inhibition, 48 h; in the data active = GI50 below about 0.43 µM; inactive = the rest
# output must be one of active, inactive

compound	category_label
CC1(C)[C@@H](OC(N)=O)C=C[C@]2(C=O)[C@H]3CC[C@]4(C)[C@@H](c5ccc(=O)oc5)[C@@H](Cl)C[C@]4(O)C3=CC[C@@H]12	active
Cc1nnc(-c2ccc(-c3nc4ccccc4o3)cc2)o1	inactive
COc1cccc(C2=C(c3cn(C)c4cccc(OC)c34)C(=O)NC2=O)c1	inactive
C1C[OH+]CC[OH+]CC[OH+]CC[OH+]CC[OH+]CC[OH+]1.[Cl-].[Nb+5]	inactive
COc1c(N2CCN(Cn3c(O)c(N=NC(=O)c4ccncc4)c4cc(F)ccc43)C(C)C2)c(F)cc2c(=O)c(C(=O)O)cn(C3CC3)c12 (stereo not drawn)	inactive

What did the test return for "COC(=O)[C@]12CC[C@@H](C)[C@H](C)[C@@H]1C1=CC[C@@H]3[C@@]4(C)CC(=O)[C@H](OC(=O)c5ccco5)[C@@]5(C)COC(=C45)C[C@@]3(C)[C@]1(C)CC2" ?
inactive

What did the test return for "CCOC(=S)SCN1C(=O)c2ccccc2S1(=O)=O" ?
inactive

What did the test return for "CC(=O)N1CCN(CCOc2ccc(C3CCN(C4=Nn5c(nnc5C(F)(F)F)CC4)CC3)cc2)CC1" ?
inactive
